tested_target: UniProtKB Q9UM07
Sequence (Q9UM07 whole entry): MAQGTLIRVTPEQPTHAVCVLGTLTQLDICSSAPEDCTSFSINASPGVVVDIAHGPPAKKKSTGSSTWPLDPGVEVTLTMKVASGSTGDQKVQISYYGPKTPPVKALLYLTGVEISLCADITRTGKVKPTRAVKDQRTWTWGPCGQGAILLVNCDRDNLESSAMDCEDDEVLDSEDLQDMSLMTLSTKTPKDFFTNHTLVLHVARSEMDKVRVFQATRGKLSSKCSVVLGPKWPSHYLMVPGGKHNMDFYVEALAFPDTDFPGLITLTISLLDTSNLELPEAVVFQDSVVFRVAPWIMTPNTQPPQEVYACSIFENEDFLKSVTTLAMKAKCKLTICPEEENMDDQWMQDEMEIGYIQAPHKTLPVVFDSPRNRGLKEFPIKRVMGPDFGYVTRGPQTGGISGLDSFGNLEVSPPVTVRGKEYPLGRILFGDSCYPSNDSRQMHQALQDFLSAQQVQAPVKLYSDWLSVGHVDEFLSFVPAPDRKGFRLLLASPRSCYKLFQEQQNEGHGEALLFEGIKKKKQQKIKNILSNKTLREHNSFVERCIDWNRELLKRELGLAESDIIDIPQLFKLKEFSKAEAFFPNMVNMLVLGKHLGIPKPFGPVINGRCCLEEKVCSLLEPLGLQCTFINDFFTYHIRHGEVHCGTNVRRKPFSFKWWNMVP
measurement_notes: RFMS human PAD4 functional assay (rapid-fire mass spectrum)
measurement_context: 5 nM hPAD4 enzyme, 250 μM BAEE, 50 μM Calcium; 30 min preincubation, 90 min reaction at 37° C.
measurement_label: IC50 (nM)
Numbers only, in nM.

[[record]]
compound = "COc1cc(C(=O)N2C[C@H]3CC[C@@H]2[C@@H]3N)cc2nc(-c3cc4ccccc4n3CC3CC3)n(Cc3cnn(-c4ccccc4)c3)c12 [Example 253]"
number = 27

[[record]]
compound = "COc1cc(C(=O)N2C[C@H]3CC[C@@H]2[C@@H]3N)cc2nc(-c3cc4cccnc4n3CC3CC3)n(CC3CN(C(C)=O)C3)c12 [Example 187]"
number = 358

[[record]]
compound = "COc1ccc(C(=O)N2CC(Cn3c(-c4cc5ccccc5n4CC4CC4)nc4cc(C(=O)N5C[C@H]6CC[C@@H]5[C@@H]6N)cc(OC)c43)C2)cc1 [Example 153]"
number = 21


# return IC50 for each item in the list
1. N#Cc1ccc(C(=O)N2CC(Cn3c(-c4cc5ccccc5n4CC4CC4)nc4cc(C(=O)N5C[C@H]6CC[C@@H]5[C@@H]6N)ccc43)C2)cc1 [Example 165]
2. COc1cc(C(=O)N2CC3CCC2[C@@H]3N)cc2nc(-c3cc4cccnc4n3CC3CC3)n(Cc3cnn(-c4ccc(Cl)cn4)c3)c12 (stereo partly drawn) [Example 360]
3. CCC(=O)N1CC(Cn2c(-c3cc4cccnc4n3CC3CC3)nc3cc(C(=O)N4C[C@H]5CC[C@@H]4[C@@H]5N)cc(OC)c32)C1 [Example 134]
4. COc1cc(C(=O)N2C[C@H]3CC[C@@H]2[C@@H]3N)cc2nc(-c3cc4cccnc4n3CC3CC3)n(CC3CCNCC3)c12 [Example 305]
5. COc1cc(C(=O)N2C[C@H](N)C[C@@H](F)C2)cc2nc(-c3cc4ccccc4n3CC3CC3)n(CC3CN(c4ccnc(C#N)n4)C3)c12 [Example 4]
6. COc1cc(C(=O)N2C[C@H]3CC[C@@H]2[C@@H]3N)cc2nc(-c3cc4ccccc4n3C)n(CC3CN(c4ccnc(C)n4)C3)c12 [Example 6]

1. 30
2. 24
3. 193
4. 303
5. 35
6. 78

Lab note: each compound below needs its IC50 filled in.
1. COc1cc(C(=O)N2C[C@H](N)C[C@@H](F)C2)cc2nc(-c3cc4ccccc4n3CC3CC3)n(CC3CN(C(=O)c4cccc(F)c4)C3)c12 [Example 157]
2. Cn1cc(Cn2c(-c3cc4ccccc4n3CC3CC3)nc3cc(C(=O)N4CC5CCC4[C@@H]5N)cc(Cl)c32)cn1 (stereo partly drawn) [Example 484]
3. COc1cc(C(=O)N2CC3CCC2[C@@H]3N)cc2nc(-c3cc4cccnc4n3CC3CC3)n(CC3CCN(C(=O)c4ccnc(C#N)c4)CC3)c12 (stereo partly drawn) [Example 200]

1. 23
2. 30
3. 198
